protocolSummary: LNP size and polydispersity index by dynamic light scattering (Zetasizer Nano ZS)
Type: physicochemical
experimentalParameters: LNP with mRNA payload formulated with the lipid; active lipid/Cholesterol/DOPC/DMG-PEG 16.8/4.0/2.0/1.0; Lipids:mRNA 25:1; PBS pH 7.4, 25° C.
endpointName: PDI
API note: the answer field is a bare number with no unit suffix.

Check out these entries, answers already filled in.
>  <molecule>
CCCCCCCC(CCCCCC)OC(=O)OCCOC(=O)CCN(CCCN(C)CCCN(CCC(=O)OCCOC(=O)OC(CCCCCC)CCCCCCC)CCC(=O)OCCOC(=O)OC(CCCCCC)CCCCCCC)CCC(=O)OCCOC(=O)OC(CCCCCC)CCCCCCC (stereo not drawn) [Lipid L0654]

>  <endpointName>
PDI

>  <reported>
0.1

$$$$
>  <molecule>
CCCCCCC(CCCC)COC(=O)CCOC(=O)CCN(CCCN(C)CCCN(CCC(=O)OCCC(=O)OCC(CCCC)CCCCCC)CCC(=O)OCCC(=O)OCC(CCCC)CCCCCC)CCC(=O)OCCC(=O)OCC(CCCC)CCCCCC (stereo not drawn) [Lipid L0854]

>  <endpointName>
PDI

>  <reported>
0.098

$$$$

// recorded PDI for CCCCCCCCCC(CC)OC(=O)OCCOC(=O)CCN(CCCN(C)CCCN(CCC(=O)OCCOC(=O)OC(CC)CCCCCCCCC)CCC(=O)OCCOC(=O)OC(CC)CCCCCCCCC)CCC(=O)OCCOC(=O)OC(CC)CCCCCCCCC (stereo not drawn) [Lipid L0659] : 0.1
